Entries and their inhibition values follow.
# target_entity: Protein kinase C alpha type (Homo sapiens);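 note: each value is the mean percent inhibition of PKC-alpha kinase activity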
# assay_conditions: at 0.1 µM
// units = %; emit number, no label

CCn1c(-c2nonc2N)nc2c(C#CC(C)(C)O)nc(O[C@@H](CN)c3ccccc3)cc21 :: 15.8
NC(=O)c1sc(-n2cnc3cc(C(F)(F)F)ccc32)cc1OCc1ccccc1Br :: 0.19
CCn1c(-c2nonc2N)nc2c(C#CC(C)(C)O)ncc(OC[C@@H]3CCCN3)c21 :: 2.42
Nc1nonc1-c1nc2cnccc2n1C1CCCCC1 :: 2.45

Reported inhibition of `CCn1c(-c2nonc2N)nc2c(C#CCN)ncc(OCCCN)c21` : 1.06

Reported inhibition of `Cc1cc(-c2ccco2)cc(C)c1/C=C/c1cncc(-c2nn[nH]n2)c1` : 0.15

Reported inhibition of `Fc1ccc(-c2ncn(C3CCNCC3)c2-c2ccnc(Oc3ccccc3)n2)cc1` : -3.5
